Tested on: 855422-203-R-J1-PDC complex spheroid viability;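 note: drug exposure lasted 7 days starting on day 3 after seeding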
assay method text: Anticancer human tumor 855422-203-R-J1-PDC patient-derived bladder carcinoma cell line growth inhibition
study conditions: second compound 0.1 µM; first compound 0.316 µM; active compounds read low
Definition: the class of an entry is the range in Low: < 60%; Medium: ≥ 60% and < 90%; High: ≥ 90% that contains its viability, T/C.

compound	measured target	category
CC1(C)CCC(CN2CCN(c3ccc(C(=O)NS(=O)(=O)c4ccc(NCC5CCOCC5)c([N+](=O)[O-])c4)c(Oc4cnc5[nH]ccc5c4)c3)CC2)=C(c2ccc(Cl)cc2)C1 + NC1CCC(NC2CC2c2ccccc2)CC1	855422-203-R-J1-PDC complex spheroid viability	High
O=C(c1cc(Cc2n[nH]c(=O)c3ccccc23)ccc1F)N1CCN(C(=O)C2CC2)CC1 + NC1CCC(NC2CC2c2ccccc2)CC1	855422-203-R-J1-PDC complex spheroid viability	Medium
O=C(C=Cn1cnc(-c2cc(C(F)(F)F)cc(C(F)(F)F)c2)n1)NNc1cnccn1 + NC1CC1c1ccc(-c2cccc(O)c2)cc1	855422-203-R-J1-PDC complex spheroid viability	Low
CC(C)c1c(-c2ccccc2)nc2c(C#N)c[nH]n2c1=O + NC1CCC(NC2CC2c2ccccc2)CC1	855422-203-R-J1-PDC complex spheroid viability	High
O=C(c1cc(Cc2n[nH]c(=O)c3ccccc23)ccc1F)N1CCN(C(=O)C2CC2)CC1 + NC1CC1c1ccc(-c2cccc(O)c2)cc1	855422-203-R-J1-PDC complex spheroid viability	High
Nc1ncn(C2CC(O)C(CO)O2)c(=O)n1 (stereo not drawn) + NC1CC1c1ccc(-c2cccc(O)c2)cc1	855422-203-R-J1-PDC complex spheroid viability	High
CC1(C)CCC(CN2CCN(c3ccc(C(=O)NS(=O)(=O)c4ccc(NCC5CCOCC5)c([N+](=O)[O-])c4)c(Oc4cnc5[nH]ccc5c4)c3)CC2)=C(c2ccc(Cl)cc2)C1 + NC1CC1c1ccc(-c2cccc(O)c2)cc1	855422-203-R-J1-PDC complex spheroid viability	High
COc1ccc([C@@H](O)c2cc(-c3ncnc4cc(N5CCOCC5)ccc34)c(F)cc2Cl)nn1 + NC1CCC(NC2CC2c2ccccc2)CC1	855422-203-R-J1-PDC complex spheroid viability	Medium
CC1COCCN1c1cc(C2(S(C)(=N)=O)CC2)nc(-c2ccnc3[nH]ccc23)n1 (stereo not drawn) + NC1CC1c1ccc(-c2cccc(O)c2)cc1	855422-203-R-J1-PDC complex spheroid viability	High
O=C(C=Cn1cnc(-c2cc(C(F)(F)F)cc(C(F)(F)F)c2)n1)NNc1cnccn1 + NC1CCC(NC2CC2c2ccccc2)CC1	855422-203-R-J1-PDC complex spheroid viability	Low
COc1ccc([C@@H](O)c2cc(-c3ncnc4cc(N5CCOCC5)ccc34)c(F)cc2Cl)nn1 + NC1CC1c1ccc(-c2cccc(O)c2)cc1	855422-203-R-J1-PDC complex spheroid viability	Medium
COc1cc(Nc2ncc3c(n2)-c2ccc(Cl)cc2C(c2c(F)cccc2OC)=NC3)ccc1C(=O)O + NC1CC1c1ccc(-c2cccc(O)c2)cc1	855422-203-R-J1-PDC complex spheroid viability	Low
CC(C)c1c(-c2ccccc2)nc2c(C#N)c[nH]n2c1=O + NC1CC1c1ccc(-c2cccc(O)c2)cc1	855422-203-R-J1-PDC complex spheroid viability	High
CC1COCCN1c1cc(C2(S(C)(=N)=O)CC2)nc(-c2ccnc3[nH]ccc23)n1 (stereo not drawn) + NC1CCC(NC2CC2c2ccccc2)CC1	855422-203-R-J1-PDC complex spheroid viability	High
COc1cc(Nc2ncc3c(n2)-c2ccc(Cl)cc2C(c2c(F)cccc2OC)=NC3)ccc1C(=O)O + NC1CCC(NC2CC2c2ccccc2)CC1	855422-203-R-J1-PDC complex spheroid viability	Medium
Nc1ncn(C2CC(O)C(CO)O2)c(=O)n1 (stereo not drawn) + NC1CCC(NC2CC2c2ccccc2)CC1	855422-203-R-J1-PDC complex spheroid viability	Medium
CC1COCCN1c1cc(-c2ccnn2C)c2ccnc(-c3ccn[nH]3)c2n1 (stereo not drawn) + NC1CC1c1ccc(-c2cccc(O)c2)cc1	855422-203-R-J1-PDC complex spheroid viability	Low
CC1COCCN1c1cc(-c2ccnn2C)c2ccnc(-c3ccn[nH]3)c2n1 (stereo not drawn) + NC1CCC(NC2CC2c2ccccc2)CC1	855422-203-R-J1-PDC complex spheroid viability	Low
